test: Solubility in organic solvent (tetrahydrofuran); format: physicochemical; details: 25° C. tetrahydrofuran; % (weight/volume)
VALUE KIND: Solubility in tetrahydrofuran (%)

CHEMICAL STRING: c1ccc(N(c2ccccc2)c2ccc(-c3ccc(-c4ccc(N(c5ccccc5)c5ccccc5)cc4)cc3)cc2)cc1
ASSAY RESULT: 2.0

CHEMICAL STRING: Cc1ccc(N(c2ccc(C)cc2)c2ccc(-c3ccc(-c4ccc(N(c5ccc(C)cc5)c5ccc(C)cc5)cc4)cc3)cc2)cc1
ASSAY RESULT: 2.0

P. Cc1ccc(N(c2ccccc2)c2ccc(-c3ccc(-c4ccc(N(c5ccccc5)c5ccc(C)cc5C)cc4)cc3)cc2)c(C)c1
Q. Cc1ccc(N(c2ccccc2)c2ccc(-c3ccc(-c4ccc(N(c5ccccc5)c5ccc(C)cc5)cc4)cc3)cc2)cc1
When P and Q are compared, which has the higher number for Solubility in tetrahydrofuran? Lab note: record the label of whichever item you select.
Q
(Q: 25.0%, P: 10.0%)

// provenance: patent US8486594B2
